Test system: HEK293 cells
protocol: Preliminary screening as DNA vectors, GFP transfection of HEK293 cells
Assay type: cell-based
condition details: HEK293 cells; lipid/DOPE liposome with 75 ng plasmid DNA (psin-EGFP-IRES-Puro); number of cells expressing GFP divided by total number of nuclei (Hoechst)
compounds and their reported Absolute DNA transfection efficiency in HEK293 cells
observation type: Absolute DNA transfection efficiency in HEK293 cells (%)

• CCCCCCCCCCCCCCCNc1nc(NCCCCCCCC)nc(NCCN2CCN(C)CC2)n1 = 0.6
• CCCCCCCCCCCCCNc1nc(NCCCCCCCCCCC)nc(NCCCN2CCOCC2)n1 = 0.0
• CCCCCCCCCCCCCCCCCCSc1nc(NCCN(C)C)nc(SCCCCCCCCCCCC)n1 = 0.0
• CCCCCCCCCCCCCCCCSc1nc(NCCN(C)C)nc(SCCCCCCCC)n1 = 4.6
• CCCCCCCCCCCCCNc1nc(NCCCCCCC)nc(NCCCN2CCN(C)CC2)n1 = 1.3
• CCCCCCCCCCCCCNc1nc(NCCCCCCCCCCC)nc(NCC2CCN(C)CC2)n1 = 0.0
• CCCCCCCCCCCCN(CCCCCCCCCCCC)c1nc(NCCCCCCC)nc(NCCN(CC)CC)n1 = 0.6
• CCCCCCCCCCCCSc1nc(NCCN2CCN(C)CC2)nc(SCCCCCCCCC)n1 = 21.0

* * *

Tested on: HEK293 cells
protocol: Preliminary screening as DNA vectors, GFP transfection of HEK293 cells
Type: cell-based
condition details: HEK293 cells; lipid/DOPE liposome with 75 ng plasmid DNA (psin-EGFP-IRES-Puro); number of cells expressing GFP divided by total number of nuclei (Hoechst)
compounds and their reported Absolute DNA transfection efficiency in HEK293 cells
observation type: Absolute DNA transfection efficiency in HEK293 cells (%)

• CCCCCCCCCCCCN(CCCCCCCCCCCC)c1nc(NCCCCCCC)nc(NCCN2CCCCC2)n1 = 1.2
• CCCCCCCCCCCCCCCSc1nc(NCCN2CCCC2)nc(SCCCCCCCCCCCCCCC)n1 = 0.0
• CCCCCCCCCCCCNc1nc(NCCCN2CCN(C)CC2)nc(N(CCCCCCCCCCCC)CCCCCCCCCCCC)n1 = 3.0
• CCCCCCCCCNc1nc(NCCCCCCC)nc(NCCCN2CCN(C)CC2)n1 = 0.7
• CCCCCCCCCCCNc1nc(NCCCCCCCC)nc(NCCN(C)C)n1 = 0.4
• CCCCCCCCCCCCNc1nc(NCCCCCCCCC)nc(NCC2CCN(C)CC2)n1 = 0.0
• CCCCCCCCCCCCCCCNc1nc(NCCCCCCC)nc(NCCN(CC)CC)n1 = 0.0
• CCCCCCCCCCCCCCCSc1nc(NCCN(CC)CC)nc(SCCCCCCCCCCCC)n1 = 1.4
• CCCCCCCCCNc1nc(NCCCCCCCC)nc(NCCCN2CCOCC2)n1 = 0.0
• CCCCCCCCCCCCCCCCCCSc1nc(NCC2CCN(C)CC2)nc(SCCCCCCCCCC)n1 = 43.1
• CCCCCCCNc1nc(NCCCCCCC)nc(NCCCN2CCN(C)CC2)n1 = 0.0
• CCCCCCCCCCCCCCCSc1nc(NCCCN2CCOCC2)nc(SCCCCCCCCC)n1 = 22.2
• CCCCCCCCCCCCCCSc1nc(NCCCN(C)C)nc(SCCCCCCCCCC)n1 = 26.9
• CCCCCCCCCCCCCCSc1nc(NCCCN2CCN(C)CC2)nc(SCCCCCCCCC)n1 = 28.4
• CCCCCCCCCCCCCNc1nc(NCCCCCCCCCCC)nc(NCCN2CCOCC2)n1 = 0.0
• CCCCCCCCCCCCCCCCCCNc1nc(NCCCCCCCC)nc(NCC2CCN(C)CC2)n1 = 1.4
• CCCCCCCCCCCCCCCSc1nc(NCCCN(C)C)nc(SCCCCCCCCCCCC)n1 = 4.4
• CCCCCCCCCCCCCCCSc1nc(NCCN(C)C)nc(SCCCCCCCCCC)n1 = 6.8
• CCCCCCCCCCCNc1nc(NCCCCCCCCC)nc(NCCN2CCOCC2)n1 = 0.0
• CCCCCCCCCNc1nc(NCCCCCC)nc(NCCN2CCN(C)CC2)n1 = 0.0
• CCCCCCCCCCCCNc1nc(NCCCCCCCC)nc(NCCN2CCCC2)n1 = 2.4
• CCCCCCCCCCCCN(CCCCCCCCCCCC)c1nc(NCCCCCC)nc(NCCN(CC)CC)n1 = 0.1
• CCCCCCCCCCCCCCCCCCSc1nc(NCCCN2CCN(C)CC2)nc(SCCCCCCCCCCCCCC)n1 = 0.5
• CCCCCCCCCCCCNc1nc(NCCCCCC)nc(NCCN2CCOCC2)n1 = 0.0
• CCCCCCCCCCCNc1nc(NCCCCCCC)nc(NCCN2CCCCC2)n1 = 1.4
• CCCCCCCNc1nc(NCCCCCCC)nc(NCC2CCN(C)CC2)n1 = 0.1
• CCCCCCCCCCCCCCCNc1nc(NCCCCCCCCCCCC)nc(NCCN2CCN(C)CC2)n1 = 0.4
• CCCCCCCNc1nc(NCCCCCCC)nc(NCCN2CCCCC2)n1 = 0.0
• CCCCCCCCCCSc1nc(NCCN2CCCC2)nc(SCCCCCCCCC)n1 = 10.3
• CCCCCCCCCCCCCCCSc1nc(NCCCN(C)C)nc(SCCCCCCCCC)n1 = 47.4
• CCCCCCCCCCCCCCCSc1nc(NCC2CCN(C)CC2)nc(SCCCCCCCCCC)n1 = 55.8
• CCCCCCCCCCCCCCCCCCNc1nc(NCCCCCCCCCCC)nc(NCC2CCN(C)CC2)n1 = 0.2
• CCCCCCCCCCCCCCCCNc1nc(NCCCCCCCCCCC)nc(NCCN2CCCC2)n1 = 1.2

* * *

System: HEK293 cells
protocol: Preliminary screening as mRNA vectors, EGFP mRNA transfection of HEK293 cells
Type: cell-based
condition details: EGFP mRNA 50 ng per well, 96-well plates; percentage of GFP fluorescent cells relative to total number of cells (Hoechst)
observation type: Absolute mRNA transfection efficiency in HEK293 cells (%)

* CCCCCCCCCCCCCCSc1nc(NCCCCCC)nc(NCCCN2CCOCC2)n1 | 9.2
* CCCCCCCSc1nc(NCCN2CCCCC2)nc(SCCCCCCC)n1 | 13.5
* CCCCCCCCCCSc1nc(NCCN(CC)CC)nc(SCCCCCCCC)n1 | 7.6
* CCCCCCCCCCCCCCCCNc1nc(NCC2CCN(C)CC2)nc(SCCCCCCCCCCCC)n1 | 3.4
* CCCCCCCCCCSc1nc(NCCCCCCC)nc(NCCN(CC)CC)n1 | 1.2
* CCCCCCNc1nc(NCCCN2CCOCC2)nc(SCCCCCC)n1 | 0.0
* CCCCCCCCCCCCSc1nc(NCCCCCCCCC)nc(NCCCN2CCN(C)CC2)n1 | 25.6
* CCCCCCCCCCCNc1nc(NCCN(C)C)nc(SCCCCCCCCC)n1 | 53.0
* CCCCCCCCCCCCCCCNc1nc(NCCN2CCN(C)CC2)nc(SCCCCCCCCCCCCCC)n1 | 0.3
* CCCCCCCNc1nc(NCCN2CCN(C)CC2)nc(SCCCCCCC)n1 | 1.0
* CCCCCCCCCCCCCCCNc1nc(NCCN2CCN(C)CC2)nc(SCCCCCCCC)n1 | 14.9
* CCCCCCCCCCCCCCCCNc1nc(NCCN2CCOCC2)nc(SCCCCCCCCCCC)n1 | 1.1
* CCCCCCCCCCCNc1nc(NCCN(CC)CC)nc(SCCCCCCCCC)n1 | 36.8
* CCCCCCCCCCCCCCCCSc1nc(NCCCCCCCCCCCCCCC)nc(NCCN2CCCC2)n1 | 0.0
* CCCCCCCCCCCCCCCCNc1nc(NCCN(CC)CC)nc(SCCCCCCCCCCCCCC)n1 | 2.7
* CCCCCCCCCCCCCCCCCCSc1nc(NCCCCCCCCCCCCCCC)nc(NCC2CCN(C)CC2)n1 | 0.2
* CCCCCCCCSc1nc(NCCCN(C)C)nc(SCCCCCCC)n1 | 6.3

* * *

Test system: HEK293 cells
protocol: Preliminary screening as DNA vectors, GFP transfection of HEK293 cells
Type: cell-based
condition details: amino lipid/DOPE liposome with 75 ng plasmid DNA (psin-EGFP-IRES-Puro); number of GFP-expressing cells divided by total nuclei (Hoechst)
observation type: Absolute DNA transfection efficiency in HEK293 cells (%)

- CCCCCCCNc1nc(NCCN2CCCC2)nc(SCCCCCCC)n1: 9.2
- CCCCCCCCCCSc1nc(NCCN(C)C)nc(SCCCCCC)n1 [S6S10 D1]: 3.2
- CCCCCCCSc1nc(NCCCN(C)C)nc(SCCCCCC)n1: 6.9
- CCCCCCCCCCCCCCSc1nc(NCCCCCCCCCCCC)nc(NCC2CCN(C)CC2)n1: 5.8
- CCCCCCCCCNc1nc(NCCN2CCOCC2)nc(SCCCCCCCCC)n1 [S9N9 D2]: 24.0
- CCCCCCCCCCCCCCCCNc1nc(NCCCN2CCN(C)CC2)nc(SCCCCCCCCCCCC)n1: 0.4
- CCCCCCCCCCCCCCCCSc1nc(NCCCCCCCCC)nc(NCCN2CCN(C)CC2)n1: 7.8
- CCCCCCCCCCCCCCCCCCNc1nc(NCCN(CC)CC)nc(SCCCCCCCCCCCC)n1: 0.3
- CCCCCCCCCCCCSc1nc(NCCCCCCCCC)nc(NCCCN2CCOCC2)n1: 0.0
- CCCCCCCCCSc1nc(NCCCCCCC)nc(NCC2CCN(C)CC2)n1: 9.3
- CCCCCCCCCCCCCCCCCCSc1nc(NCCCCCCCCCCCCCCCC)nc(NCCCN(C)C)n1: 0.0
- CCCCCCCCCCCCCNc1nc(NCCN2CCCC2)nc(SCCCCCCCCCCCC)n1: 3.6
- CCCCCCCCCCCCCCCSc1nc(NCCCCCCCCCCC)nc(NCCN2CCCCC2)n1: 8.9
- CCCCCCCCCCCCCNc1nc(NCCN2CCCC2)nc(SCCCCCC)n1: 9.9
- CCCCCCCCCCCCCCCCNc1nc(NCCN2CCCC2)nc(SCCCCCCCC)n1: 3.3
- CCCCCCCCCCCCSc1nc(NCCCN2CCN(C)CC2)nc(SCCCCCCC)n1: 4.8
- CCCCCCCCCCCCCCSc1nc(NCCCCCCCCCCCCC)nc(NCCN2CCN(C)CC2)n1: 1.9
- CCCCCCCCCNc1nc(NCCN2CCCCC2)nc(SCCCCCCCC)n1: 15.5

Where do the numbers come from? From patent US20230123334A1.
